Target: T1, extracellular domain of human KLB expressed with C-terminal HA and hexahistidine tags (human, UniProt Q86Z14 1-996)
T1 construct: also called hKLB-HA-6His; hKLB-HA-6his
T1 sequence: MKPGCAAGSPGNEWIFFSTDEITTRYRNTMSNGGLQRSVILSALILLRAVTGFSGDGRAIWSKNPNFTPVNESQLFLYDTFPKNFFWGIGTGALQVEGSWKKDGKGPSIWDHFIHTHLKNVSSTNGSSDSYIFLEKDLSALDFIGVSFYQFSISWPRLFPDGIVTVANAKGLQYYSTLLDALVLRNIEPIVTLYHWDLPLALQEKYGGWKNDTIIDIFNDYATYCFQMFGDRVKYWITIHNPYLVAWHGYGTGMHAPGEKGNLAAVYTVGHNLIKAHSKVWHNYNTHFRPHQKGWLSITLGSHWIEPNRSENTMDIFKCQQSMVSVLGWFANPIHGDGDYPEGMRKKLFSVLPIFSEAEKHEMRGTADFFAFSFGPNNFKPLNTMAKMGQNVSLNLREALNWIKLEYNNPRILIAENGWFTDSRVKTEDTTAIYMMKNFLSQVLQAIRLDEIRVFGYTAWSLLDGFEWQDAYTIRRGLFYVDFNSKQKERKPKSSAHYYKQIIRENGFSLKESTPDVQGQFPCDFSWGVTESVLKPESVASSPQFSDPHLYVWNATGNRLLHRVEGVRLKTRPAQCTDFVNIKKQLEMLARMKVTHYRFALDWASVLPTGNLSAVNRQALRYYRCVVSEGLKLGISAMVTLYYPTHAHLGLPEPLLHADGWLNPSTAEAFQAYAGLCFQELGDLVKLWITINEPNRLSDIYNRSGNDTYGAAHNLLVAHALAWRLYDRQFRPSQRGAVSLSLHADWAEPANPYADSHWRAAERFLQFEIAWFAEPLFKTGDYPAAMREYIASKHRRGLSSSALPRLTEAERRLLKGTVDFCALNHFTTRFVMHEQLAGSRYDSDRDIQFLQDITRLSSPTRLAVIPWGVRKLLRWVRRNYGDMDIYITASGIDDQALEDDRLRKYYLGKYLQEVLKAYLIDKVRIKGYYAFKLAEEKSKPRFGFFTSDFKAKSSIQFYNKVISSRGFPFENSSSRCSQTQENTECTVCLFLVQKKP
Test: SPR, mAb captured, 37 C
outcome measure: 20 nM hKLB-HA-6His Bind (RU)
Use RU as the unit, but write only the number.

-- ask # 20 nM hKLB-HA-6His Bind (RU) lookup, item H2aM8092N (antibody, V domains shown, mouse IgG2 Fc (H2aM prefix); also called H2M8092N) VH: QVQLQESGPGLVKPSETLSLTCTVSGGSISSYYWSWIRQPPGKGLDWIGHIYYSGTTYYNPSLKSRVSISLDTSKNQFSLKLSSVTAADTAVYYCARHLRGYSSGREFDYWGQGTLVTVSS VL: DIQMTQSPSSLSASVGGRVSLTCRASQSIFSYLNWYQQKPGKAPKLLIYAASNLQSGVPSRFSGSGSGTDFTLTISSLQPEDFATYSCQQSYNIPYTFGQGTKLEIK
-- reply 93.6
